# Assay: Serum pharmacokinetic study, single oral gavage
# Assay type: in vivo, C57BL/6J mice
# Condition notes: male, mouse, serum, po; 10mg/kg, orally once, normal C57BL/6J mice
Result type: AUC(0-t)

Quick one: AUC(0-t) of CC(C)c1cc(Oc2c(Cl)cc(-n3nc(C#N)c(=O)[nH]c3=O)cc2Cl)n[nH]c1=O ?
35600 ng·h/mL

* * *

# Assay: Tissue distribution study (heart, liver, kidney, blood) by LC-MS/MS
# Type: in vivo, C57BL/6J mice
# Condition notes: male, C57BL/6J, mouse, heart / blood; 3 mg/kg oral, 2h; read-out: Ratio (tissue/blood), Heart
Result type: Kp at 2 h
// return a plain number; no unit text

Item under review: CC(C)c1cc(Oc2c(Cl)cc(-n3nc(C#N)c(=O)[nH]c3=O)cc2Cl)n[nH]c1=O . Reported Kp at 2 h?
0.213

* * *

# Assay: Tissue distribution study (heart, liver, kidney, blood) by LC-MS/MS
# Assay type: in vivo, C57BL/6J mice
# Condition notes: male, C57BL/6J, mouse, liver / blood; 3 mg/kg oral, 2h; read-out: Ratio (tissue/blood), Liver
Result type: Kp at 2 h
Could you keep your reply to the number by itself?

# input compound: CC(C)c1cc(Oc2c(Cl)cc(-n3nc(C#N)c(=O)[nH]c3=O)cc2Cl)n[nH]c1=O [MGL-3196] ; wanted: its Kp at 2 h
6.59

* * *

# Assay: Tissue distribution study (heart, liver, kidney, blood) by LC-MS/MS
# Format: in vivo, C57BL/6J mice
# Condition notes: male, C57BL/6J, mouse, heart / blood; 3 mg/kg oral, 24h; read-out: Ratio (tissue/blood), Heart
Result type: Kp at 24 h
Respond numerically, and do not add a unit to the figure.

# Kp at 24 h lookup, item CC(C)c1cc(Oc2c(Cl)cc(-n3nc(C#N)c(=O)[nH]c3=O)cc2Cl)n[nH]c1=O
3.07

* * *

# Assay: Serum pharmacokinetic study, single oral gavage
# Format: in vivo, C57BL/6J mice
# Condition notes: male, mouse, serum, po; 3mg/kg, orally once, normal C57BL/6J mice
Result type: Tmax (h)
Please respond with the number in h and leave the unit unwritten.

# get_value(readout='Tmax', item= CC(C)c1cc(Oc2c(Cl)cc(-n3nc(C#N)c(=O)[nH]c3=O)cc2Cl)n[nH]c1=O )
2

* * *

# Assay: Tissue distribution study (heart, liver, kidney, blood) by LC-MS/MS
# Format: in vivo, C57BL/6J mice
# Condition notes: C57BL/6J, mouse, kidney/blood; 10 mg/kg oral, 24h; read-out: Ratio (tissue/blood), Kidney
Result type: Kp at 24 h
Reply with just the number.

Give its Kp at 24 h value. Item: CC(C)c1cc(Oc2c(Cl)cc(-n3nc(C#N)c(=O)[nH]c3=O)cc2Cl)n[nH]c1=O [MGL-3196]
0.734

* * *

# Assay: Tissue distribution study (heart, liver, kidney, blood) by LC-MS/MS
# Type: in vivo, C57BL/6J mice
# Condition notes: male, C57BL/6J, mouse, kidney / blood; 3 mg/kg oral, 24h; read-out: Ratio (tissue/blood), Kidney
Result type: Kp at 24 h
Could you respond with only the numeric value?

Item under review: CC(C)c1cc(Oc2c(Cl)cc(-n3nc(C#N)c(=O)[nH]c3=O)cc2Cl)n[nH]c1=O [MGL-3196] . Reported Kp at 24 h?
1.25
